- tested-target: EGFR (Homo sapiens)
- Construct: Kinases are expressed as either kinase domains or full length constructs; made in house
- Sequence (P00533 25-1210, species assumed): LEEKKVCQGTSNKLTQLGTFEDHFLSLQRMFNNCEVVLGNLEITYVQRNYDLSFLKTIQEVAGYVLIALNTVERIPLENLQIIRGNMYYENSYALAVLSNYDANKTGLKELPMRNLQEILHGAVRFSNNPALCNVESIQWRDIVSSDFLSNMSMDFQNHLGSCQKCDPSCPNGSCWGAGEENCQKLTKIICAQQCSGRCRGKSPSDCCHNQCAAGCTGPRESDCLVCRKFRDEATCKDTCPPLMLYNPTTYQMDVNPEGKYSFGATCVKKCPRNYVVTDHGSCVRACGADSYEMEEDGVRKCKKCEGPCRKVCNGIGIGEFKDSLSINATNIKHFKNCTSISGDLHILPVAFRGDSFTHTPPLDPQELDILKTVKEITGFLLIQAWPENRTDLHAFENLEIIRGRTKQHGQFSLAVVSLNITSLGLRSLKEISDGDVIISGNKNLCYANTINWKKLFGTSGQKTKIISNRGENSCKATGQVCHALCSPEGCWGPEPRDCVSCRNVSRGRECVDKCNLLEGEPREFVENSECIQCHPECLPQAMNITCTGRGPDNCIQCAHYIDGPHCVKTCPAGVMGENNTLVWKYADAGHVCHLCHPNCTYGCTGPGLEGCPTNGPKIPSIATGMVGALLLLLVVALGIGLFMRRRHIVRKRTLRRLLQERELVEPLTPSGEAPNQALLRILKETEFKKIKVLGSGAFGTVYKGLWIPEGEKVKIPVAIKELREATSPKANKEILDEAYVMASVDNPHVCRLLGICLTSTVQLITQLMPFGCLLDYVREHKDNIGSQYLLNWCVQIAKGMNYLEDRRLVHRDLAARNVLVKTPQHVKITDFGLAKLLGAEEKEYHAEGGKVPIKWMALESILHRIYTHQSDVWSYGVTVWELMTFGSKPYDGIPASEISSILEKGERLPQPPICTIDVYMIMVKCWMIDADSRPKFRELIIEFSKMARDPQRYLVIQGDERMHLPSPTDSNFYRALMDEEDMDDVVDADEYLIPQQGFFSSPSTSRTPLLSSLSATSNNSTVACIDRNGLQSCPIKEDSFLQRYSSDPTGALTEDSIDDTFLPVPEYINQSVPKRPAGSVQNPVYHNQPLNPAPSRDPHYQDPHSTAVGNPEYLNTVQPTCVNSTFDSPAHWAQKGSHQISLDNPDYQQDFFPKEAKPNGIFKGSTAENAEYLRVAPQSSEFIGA
- assay-method-text: Kinase inhibition assay (33P transfer), EGFR
- Type: biochemical
- measurement-context: Table 2, class symbols A-E; read-out: EGFR-1
value-kind: IC50

// worked examples, IC50 included
>  <molecule>
COc1ccc(Nc2ncnc(Nc3ccc4c(cnn4Cc4ccccc4)c3)n2)cc1

>  <IC50>
< 0.945 µM

$$$$
>  <molecule>
COc1ccc(CNc2nc3ccccc3n2-c2ncnc(Nc3cccc(C(=O)O)c3)n2)cc1

>  <IC50>
> 9.63 µM

$$$$
>  <molecule>
COc1ccc(Nc2ncnc(NCC(=O)c3ccccc3)n2)cc1OC

>  <IC50>
6.57 to 9.58 µM

$$$$

[ask] Any idea what IC50 was measured for COc1cc(Nc2ncnc(Nc3cc(-c4ccc(C(=O)N(C)C)cc4)n[nH]3)n2)cc(OC)c1OC ?
[reply] 0.815 to 4.89 µM

Every entry's value here was drawn from patent US7074789B2.
